Entries and their inhibition at 0.2 µM
system: CDK4 (Homo sapiens)
Construct: endogenous in cells; host or cells: Calu-1
runDescription: CDK4 percentage degradation in Calu-1 cells (immunoblotting)
Assay type: cell-based
measurementContext: Calu-1 cells, 200 nM, 16 hours; read-out: CDK4 Degradation (200 nM)

CC(=O)c1c(C)c2cnc(Nc3ccc(N4CCN(CC(=O)NCCCCCNC(=O)COc5ccc(C(=O)Nc6ncc(C)s6)c(C)c5)CC4)cn3)nc2n(C2CCCC2)c1=O | < 30%
CC(=O)c1c(C)c2cnc(Nc3ccc(N4CCN(CC(=O)NCCOCCOCCC(=O)Nc5ccccc5C(=O)Nc5nc(C6CCN(C)CC6)c(C)s5)CC4)cn3)nc2n(C2CCCC2)c1=O | < 30%
CC(=O)c1c(C)c2cnc(Nc3ccc(N4CCN(CC(=O)NCCOCCOCCOCCNC(=O)c5ccc(C(=O)Nc6ncc(C)s6)c(C)c5)CC4)cn3)nc2n(C2CCCC2)c1=O | < 30%
CC(=O)c1c(C)c2cnc(Nc3ccc(N4CCN(CC(=O)NCCCCNc5cc(C)ccc5C(=O)Nc5ccc(N(C)C)nn5)CC4)cn3)nc2n(C2CCCC2)c1=O | 50 to 80%

Q: Provide the documented inhibition at 0.2 µM with CDK4 (Homo sapiens) as the system for CC(=O)c1c(C)c2cnc(Nc3ccc(N4CCN(CC(=O)NCCCCC(=O)Nc5ccccc5C(=O)Nc5nc(C)c(C)s5)CC4)cn3)nc2n(C2CCCC2)c1=O
Result: > 80%

* * *

system: CDK4 (Homo sapiens, UniProt P11802)
Construct: endogenous in cells; host or cells: Calu-1
Sequence (P11802 2-303 limits assumed): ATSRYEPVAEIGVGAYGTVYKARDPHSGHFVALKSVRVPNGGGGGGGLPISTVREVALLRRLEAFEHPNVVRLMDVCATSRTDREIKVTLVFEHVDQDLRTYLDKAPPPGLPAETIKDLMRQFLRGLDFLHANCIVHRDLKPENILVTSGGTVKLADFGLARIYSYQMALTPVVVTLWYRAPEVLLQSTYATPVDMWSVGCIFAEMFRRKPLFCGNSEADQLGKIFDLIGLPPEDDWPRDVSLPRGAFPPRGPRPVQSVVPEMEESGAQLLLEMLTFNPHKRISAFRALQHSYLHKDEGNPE
Sequence (P24385 whole entry partner): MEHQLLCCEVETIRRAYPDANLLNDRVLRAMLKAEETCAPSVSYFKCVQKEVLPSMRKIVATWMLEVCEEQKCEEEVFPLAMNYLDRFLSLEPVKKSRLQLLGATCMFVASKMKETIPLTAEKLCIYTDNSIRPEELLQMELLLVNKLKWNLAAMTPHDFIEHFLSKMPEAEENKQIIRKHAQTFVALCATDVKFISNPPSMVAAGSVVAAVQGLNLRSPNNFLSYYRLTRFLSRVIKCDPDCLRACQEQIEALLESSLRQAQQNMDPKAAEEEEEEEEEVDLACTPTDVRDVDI
Sequence (Q16531 2-1140 limits assumed, further chain): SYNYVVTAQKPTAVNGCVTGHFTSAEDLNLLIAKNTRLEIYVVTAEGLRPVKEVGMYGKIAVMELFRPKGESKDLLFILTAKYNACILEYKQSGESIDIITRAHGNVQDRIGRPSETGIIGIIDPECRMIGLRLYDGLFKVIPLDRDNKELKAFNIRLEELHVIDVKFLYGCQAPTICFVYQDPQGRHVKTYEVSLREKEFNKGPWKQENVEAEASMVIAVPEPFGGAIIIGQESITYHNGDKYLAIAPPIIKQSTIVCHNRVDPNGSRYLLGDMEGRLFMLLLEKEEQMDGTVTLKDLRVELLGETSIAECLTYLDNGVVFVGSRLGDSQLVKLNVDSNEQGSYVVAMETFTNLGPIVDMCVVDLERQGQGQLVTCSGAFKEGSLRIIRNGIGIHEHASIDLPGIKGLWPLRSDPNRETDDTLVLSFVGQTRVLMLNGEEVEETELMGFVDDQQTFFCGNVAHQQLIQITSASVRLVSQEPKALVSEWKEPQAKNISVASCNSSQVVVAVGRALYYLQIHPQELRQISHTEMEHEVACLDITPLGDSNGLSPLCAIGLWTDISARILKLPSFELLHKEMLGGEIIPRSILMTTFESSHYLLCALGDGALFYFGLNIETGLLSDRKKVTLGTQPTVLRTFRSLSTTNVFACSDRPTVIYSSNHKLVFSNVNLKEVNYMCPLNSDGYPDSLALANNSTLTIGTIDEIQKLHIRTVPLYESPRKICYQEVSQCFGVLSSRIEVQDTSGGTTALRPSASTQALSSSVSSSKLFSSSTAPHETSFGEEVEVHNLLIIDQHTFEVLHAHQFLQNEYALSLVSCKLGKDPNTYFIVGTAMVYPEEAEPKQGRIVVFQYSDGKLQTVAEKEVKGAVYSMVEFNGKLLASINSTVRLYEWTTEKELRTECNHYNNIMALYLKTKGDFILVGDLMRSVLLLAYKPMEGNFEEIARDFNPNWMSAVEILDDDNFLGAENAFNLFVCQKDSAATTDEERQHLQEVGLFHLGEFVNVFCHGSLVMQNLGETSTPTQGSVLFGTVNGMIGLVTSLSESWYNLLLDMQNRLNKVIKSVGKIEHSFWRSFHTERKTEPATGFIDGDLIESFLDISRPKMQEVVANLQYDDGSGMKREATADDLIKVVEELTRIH
runDescription: CDK4 percentage degradation in Calu-1 cells (immunoblotting)
Assay type: cell-based
measurementContext: Calu-1 cells, 200 nM, 16 hours; read-out: CDK4 Degradation (200 nM)
measuredEndpoint: inhibition at 0.2 µM

COc1ccc(NC(=O)c2ccccc2NC(=O)COCCN2CCC(NC(=O)CN3CCN(c4ccc(Nc5ncc6c(C)c(C(C)=O)c(=O)n(C7CCCC7)c6n5)nc4)CC3)CC2)nn1 | < 30%

Q: Report inhibition at 0.2 µM for CC(=O)c1c(C)c2cnc(Nc3ccc(N4CCN(CC(=O)NCCOCCOCCC(=O)Nc5cc6c(cc5C(=O)Nc5ccc(C)cn5)CCN6)CC4)cn3)nc2n(C2CCCC2)c1=O please.
Result: > 80%

Q: Please give the result for CC(=O)c1c(C)c2cnc(Nc3ccc(N4CCN(CC(=O)NCCOCCOCCC(=O)Nc5ccccc5C(=O)Nc5nc(C(F)(F)F)c(C)s5)CC4)cn3)nc2n(C2CCCC2)c1=O too.
Result: 50 to 80%

Q: Please give the result for CC(=O)c1c(C)c2cnc(Nc3ccc(N4CCN(CC(=O)NCCOCCOCCNc5cccc(C(=O)Nc6cc(C)n(C)n6)c5C)CC4)cn3)nc2n(C2CCCC2)c1=O too.
Result: 50 to 80%

Q: Please give the result for CNc1ccc(C(=O)Nc2ccc(N(C)C)nn2)c(NCCCCCNC(=O)CN2CCN(c3ccc(Nc4ncc5c(C)c(C(C)=O)c(=O)n(C6CCCC6)c5n4)nc3)CC2)c1 too.
Result: 50 to 80%

* * *

system: DDB1 (Homo sapiens, UniProt Q16531, D705G/DEL396-460/DEL463-701/I704S/T703N)
Construct: His6 (N, cleaved yes); TEV protease cleavage site (N, cleaved yes); made in house; host or cells: SF9 insect cells, Bac-to-Bac baculovirus, pFastBacHTB vector
Sequence (Q16531 other isoform, or with tags, fused parts or gaps DEL396-460/DEL463-701/T703N/I704S/D705G): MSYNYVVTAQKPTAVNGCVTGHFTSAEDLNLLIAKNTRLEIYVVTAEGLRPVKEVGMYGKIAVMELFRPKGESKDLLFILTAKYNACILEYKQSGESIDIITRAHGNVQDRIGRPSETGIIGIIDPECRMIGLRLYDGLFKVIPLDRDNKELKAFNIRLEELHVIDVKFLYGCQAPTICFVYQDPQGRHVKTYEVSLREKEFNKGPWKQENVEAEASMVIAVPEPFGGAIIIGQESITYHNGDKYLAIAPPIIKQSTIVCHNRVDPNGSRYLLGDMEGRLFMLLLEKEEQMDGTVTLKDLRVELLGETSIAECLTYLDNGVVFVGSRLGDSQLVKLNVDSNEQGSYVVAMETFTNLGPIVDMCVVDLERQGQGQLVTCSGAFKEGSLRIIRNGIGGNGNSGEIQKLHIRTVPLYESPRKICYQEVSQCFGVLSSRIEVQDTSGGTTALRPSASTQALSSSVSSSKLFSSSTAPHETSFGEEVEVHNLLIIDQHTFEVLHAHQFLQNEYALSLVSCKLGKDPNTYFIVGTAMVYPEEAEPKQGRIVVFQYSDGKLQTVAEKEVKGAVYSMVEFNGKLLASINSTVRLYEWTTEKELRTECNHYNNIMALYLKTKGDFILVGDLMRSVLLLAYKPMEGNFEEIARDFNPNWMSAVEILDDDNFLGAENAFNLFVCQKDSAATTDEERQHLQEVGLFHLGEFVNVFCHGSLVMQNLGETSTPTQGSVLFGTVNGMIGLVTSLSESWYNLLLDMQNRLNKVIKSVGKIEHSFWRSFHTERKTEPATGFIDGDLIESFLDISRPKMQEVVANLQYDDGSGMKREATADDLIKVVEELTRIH
runDescription: SPR binding assay to immobilized DDB1ΔBPB
measurementContext: binding affinities to DDB1
pKd: −log10 of the molar value.
measuredEndpoint: pKd

// below: answered compounds
Cc1cnc(NC(=O)c2ccc(NCCOCCOCCOCCOCCOCCNC(=O)CN3CCN(c4ccc(Nc5ncc6cc7n(c6n5)C5(CCCCC5)CNC7=O)nc4)CC3)cc2C)s1 | > 4.70
Cc1cnc(NC(=O)c2ccc(NCCOCCOCCOCCOCCOCCNC(=O)CN3CCN(Cc4ccc(Nc5ncc(F)c(-c6cc(F)c7nc(C)n(C(C)C)c7c6)n5)nc4)CC3)cc2C)s1 | > 4.70

Q: Report pKd for CC(=O)c1c(C)c2cnc(Nc3ccc(N4CCN(CC(=O)NCCOCCOCCOCCOCCOCCNc5ccc(C(=O)Nc6nc(C(C)C)c(C)s6)c(C)c5)CC4)cn3)nc2n(C2CCCC2)c1=O please.
Result: > 4.70

Q: Please give the result for COC(=O)c1nc(NC(=O)c2ccc(NCCOCCOCCOCCOCCOCCNC(=O)CN3CCN(c4ccc(Nc5ncc6c(C)c(C(C)=O)c(=O)n(C7CCCC7)c6n5)nc4)CC3)cc2C)sc1C too.
Result: > 4.70

Q: Please give the result for COc1ccc(NC(=O)c2ccccc2NC(C)=O)nc1 too.
Result: 4.30 to 4.70
